Values compiled from patent US20220332804A1.

# testSystem: T1, cynomolgus monkey C2 (cynomolgus monkey, UniProt G8F3W0 21-752)
# T1 sequence: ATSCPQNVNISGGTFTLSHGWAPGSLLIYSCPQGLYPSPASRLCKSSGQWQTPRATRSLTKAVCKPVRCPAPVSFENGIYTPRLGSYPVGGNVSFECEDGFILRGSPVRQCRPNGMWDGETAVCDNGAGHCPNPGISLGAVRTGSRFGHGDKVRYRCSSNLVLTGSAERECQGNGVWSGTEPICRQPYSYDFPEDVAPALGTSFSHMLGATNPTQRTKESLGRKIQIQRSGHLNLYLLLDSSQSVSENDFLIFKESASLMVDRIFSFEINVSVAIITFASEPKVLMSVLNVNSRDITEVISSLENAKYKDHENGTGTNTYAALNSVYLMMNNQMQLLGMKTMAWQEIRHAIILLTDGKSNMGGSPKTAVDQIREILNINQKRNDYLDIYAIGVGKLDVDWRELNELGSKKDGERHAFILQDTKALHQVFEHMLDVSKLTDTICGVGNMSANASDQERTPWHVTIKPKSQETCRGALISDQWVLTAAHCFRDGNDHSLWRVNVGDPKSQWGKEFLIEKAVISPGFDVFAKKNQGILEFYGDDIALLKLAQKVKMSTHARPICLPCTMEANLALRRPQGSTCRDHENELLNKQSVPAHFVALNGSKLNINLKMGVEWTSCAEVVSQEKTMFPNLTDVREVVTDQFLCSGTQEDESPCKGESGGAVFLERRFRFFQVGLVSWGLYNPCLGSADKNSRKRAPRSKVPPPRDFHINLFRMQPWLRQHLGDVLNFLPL
# protocol: cell-based or functional assay
reportedEndpoint: IC50, inhibition of cynomolgus classical complement pathway (Wieslab assay) (µM)
// units = µM; emit number, no label

**Query** Dear colleague, I am looking for the recorded IC50, inhibition of cynomolgus classical complement pathway (Wieslab assay) of the following binder: RF16-203G (antibody, V domains shown) VH: EVQLLESGGGLVQPGGSLRLSCAASGFTFSRYYMMWVRQAPGKGLEWVSSIGSSGGTTNYADSVKGRFTISRDNSKNTLYLQMNSLRAEDTAVYYCAKGGMVLGVVNIWGQGTLVTVSS VL: SYELTQPPSVSVSPGQTASITCSGDKLGEKYVSWYQQKPGQSPVLVIYQDIKRPSGIPERFSGSNSGNTATLTISGTQAMDEADYYCQTWGTGGIQVFGGGTKLTVLG
**Result** 14.1
